test system: Expi293 cells transfected with His-Halotag; experiment: Library cell penetration assay, cell crash method (Example 6); assay type: in vitro ADME, human; details: MS signal of unconverted —Cl agent from cells, library pool or individual peptide
Item-by-item account of Peptide Signal in Cells (from cells; agents comprising —Cl)
Respond numerically, and do not add a unit to the figure.

Which value of Peptide Signal in Cells (from cells; agents comprising —Cl) has been reported for CNC(=O)[C@H](C)NC(=O)[C@H](C)NC(=O)[C@H](CO)NC(=O)[C@]1(C)CCCC=CCCCCCC[C@@](C)(NC(=O)[C@H](Cc2ccccc2)NC(=O)[C@@H](NC(=O)[C@H](CC(C)C)NC(=O)CCC(=O)NCCOCCOCCCCCCCl)[C@@H](C)O)C(=O)N[C@@H](CCC(=O)O)C(=O)N[C@@H](Cc2ccc(O)cc2)C(=O)N[C@@H](Cc2c[nH]c3ccccc23)C(=O)N[C@@H](C)C(=O)N[C@@H]([C@@H](C)O)C(=O)N[C@@H](CC2CCC2)C(=O)N1 [PEP000126] in the records?
4E+06

Which value of Peptide Signal in Cells (from cells; agents comprising —Cl) has been reported for CNC(=O)[C@H](C)NC(=O)[C@H](C)NC(=O)[C@H](CO)NC(=O)[C@]1(C)CCCC=CCCCCCC[C@@](C)(NC(=O)[C@H](Cc2ccccc2)NC(=O)[C@@H](NC(=O)[C@H](CC(C)C)NC(=O)CCC(=O)NCCOCCOCCCCCCCl)[C@@H](C)O)C(=O)N[C@@H](CCC(=O)O)C(=O)N[C@@H](Cc2ccc(O)cc2)C(=O)N[C@@H](Cc2c[nH]c3ccccc23)C(=O)N[C@@H](C)C(=O)N[C@@H](CCC(N)=O)C(=O)N[C@@H](CC2CCC2)C(=O)N1 (single isomer, unassigned) [PEP000125] in the records?
4E+06

Which value of Peptide Signal in Cells (from cells; agents comprising —Cl) has been reported for CC(C)C[C@H](NC(=O)CCC(=O)NCCOCCOCCCCCCCl)C(=O)N[C@H](C(=O)N[C@@H](Cc1ccccc1)C(=O)N[C@]1(C)CCCCCCC=CCCC[C@@](C)(C(=O)N[C@@H](CO)C(=O)N[C@@H](C)C(=O)N[C@@H](C)C(N)=O)NC(=O)[C@H](CC2CCC2)NC(=O)[C@H]([C@@H](C)O)NC(=O)[C@H](C)NC(=O)[C@H](Cc2c[nH]c3ccccc23)NC(=O)[C@H](Cc2ccc(O)cc2)NC(=O)[C@H](CCC(=O)O)NC1=O)[C@@H](C)O [PEP000123] in the records?
1E+07

Which value of Peptide Signal in Cells (from cells; agents comprising —Cl) has been reported for CNC(=O)[C@H](C)NC(=O)[C@H](C)NC(=O)[C@H](CO)NC(=O)[C@]1(C)CCCC=CCCCCCC[C@@](C)(NC(=O)[C@H](Cc2ccccc2)NC(=O)[C@@H](NC(=O)[C@H](CC(C)C)NC(=O)CCC(=O)NCCOCCOCCCCCCCl)[C@@H](C)O)C(=O)N[C@@H](CCC(=O)O)C(=O)N[C@@H](Cc2ccc(O)cc2)C(=O)N[C@@H](Cc2c[nH]c3ccccc23)C(=O)N[C@@H](C)C(=O)N[C@@H](C)C(=O)N[C@@H](CC2CCC2)C(=O)N1 [PEP000124] in the records?
3E+06
